targetOfAssay: Recombinant CYP3A4 Supersomes (Homo sapiens, UniProt P08684)
Construct: purchased
Sequence (P08684 whole entry): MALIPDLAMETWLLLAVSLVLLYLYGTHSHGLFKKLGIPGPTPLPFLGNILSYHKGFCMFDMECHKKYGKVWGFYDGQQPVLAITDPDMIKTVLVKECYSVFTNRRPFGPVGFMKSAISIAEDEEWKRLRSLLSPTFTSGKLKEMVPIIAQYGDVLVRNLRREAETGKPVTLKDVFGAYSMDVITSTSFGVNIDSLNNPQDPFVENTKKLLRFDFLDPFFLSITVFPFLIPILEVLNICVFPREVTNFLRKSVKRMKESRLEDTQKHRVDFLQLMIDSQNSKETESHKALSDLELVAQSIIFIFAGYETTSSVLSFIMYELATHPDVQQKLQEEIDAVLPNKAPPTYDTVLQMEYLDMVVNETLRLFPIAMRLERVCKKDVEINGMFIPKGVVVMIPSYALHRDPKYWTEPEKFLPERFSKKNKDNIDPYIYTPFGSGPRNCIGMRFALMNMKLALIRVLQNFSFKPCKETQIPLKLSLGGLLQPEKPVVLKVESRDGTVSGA
assayProcedure: Recombinant CYP3A4 Clearance Assay
Type: in vitro ADME
condition: recombinant CYP3A4 50 pmol/mL, 1 μM substrate, NADPH; control = geometric mean of 3 replicates
Method: The CYP3A4 Clearance Assay was performed to determine the stability of deuterated compounds described herein and calculate changes in clearance relative to the control compound (undeuterated compound) that has the following structure: […] LC-MS/MS chromatograms were analyzed by peak area ratio (test article peak area/internal standard peak area) and natural log transformed, and plotted against time. The slope of the line was determined to calculate elimination rate constant. […]
metricName: CLint (µL/min/pmol)

Below: 4 compounds and their reported CLint.
INSERT INTO measurements (substancesmiles, metricname, unitlabel, reading) VALUES
  ('[2H]C1([2H])CC(CNC(=O)c2cc(F)cc(Cl)c2)CC([2H])([2H])N1CC(=O)NC(C)(C)C', 'CLint', 'µL/min/pmol', 1.21),
  ('[2H]C1([2H])N(CC(=O)NC(C)(C)C)C([2H])([2H])C([2H])([2H])C([2H])(CNC(=O)c2cc(F)cc(Cl)c2)C1([2H])[2H]', 'CLint', 'µL/min/pmol', 1.15),
  ('[2H]C([2H])(C(=O)NC(C)(C)C)N1CCC(CNC(=O)c2cc(F)cc(Cl)c2)CC1', 'CLint', 'µL/min/pmol', 1.36),
  ('[2H]C([2H])([2H])C(NC(=O)CN1C([2H])([2H])C([2H])([2H])C([2H])(CNC(=O)c2cc(F)cc(Cl)c2)C([2H])([2H])C1([2H])[2H])(C([2H])([2H])[2H])C([2H])([2H])[2H]', 'CLint', 'µL/min/pmol', 1.06);

(A) [2H]C1([2H])CN(CC(=O)NC(C([2H])([2H])[2H])(C([2H])([2H])[2H])C([2H])([2H])[2H])CC([2H])([2H])C1CNC(=O)c1cc(F)cc(Cl)c1
(B) [2H]C([2H])([2H])C(C)(NC(=O)CN1C([2H])([2H])C([2H])([2H])C([2H])(CNC(=O)c2cc(F)cc(Cl)c2)C([2H])([2H])C1([2H])[2H])C([2H])([2H])[2H]
Given the two records A and B , choose the one whose CLint value is lower. Please respond with the label that marks your chosen entry.
B

Provenance of the data: patent US20240025852A1
